B1: TPR t1 (parent)
chain: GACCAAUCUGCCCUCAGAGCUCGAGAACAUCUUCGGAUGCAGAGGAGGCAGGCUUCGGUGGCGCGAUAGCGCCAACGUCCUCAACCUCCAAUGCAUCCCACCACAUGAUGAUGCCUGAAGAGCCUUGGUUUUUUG

# Variants of: B1
# PROTOCOL DESCRIPTION: polymerase ribozyme fitness, log enrichment relative to wild type (log ratio); higher = more active; in vitro selection for triplet polymerase activity
QUANTITY NAME: polymerase ribozyme fitness (log ratio)

C28G C62G C98U C124U ... -5.55
C72U U81G U87A C102A ... -7.12
C62A U81A G93A ... -2.69
C56G C101U ... -0.0823
C8U G44A C104U ... 0.0147
C89G C94G ... -3.06
C72U A84U C101U ... -0.839
A24G C53U ... -2.07
C34G A50U G61C A90G G110C ... -7.04
C13U A37U ... 0.687
G52A U55A G61A C97U C101G U125G ... -2.53
C13U G60U ... -0.0139
C53U G60U A121C ... 1.26
A43C G45C G63C G117U A118U G135A ... -5.43
A121C G128C ... -0.622
C34G C70U U96A A103U A121C U132C ... -7.51
G52A C64A C101A C115A ... -6.42
G39U G122A ... -1.25
C15G A43U C64A A84G C85G A90C U112G U132C ... -6.82
C11U C22A ... -4.84
G10A G107A C123U C124A ... -4.28
C12A A74U ... -0.922
C70A G71C ... -4.68
G10U G63A U112A ... -0.981
C40A G71A G113A ... -3.05
U32G C34G C64U C85A G110U ... -6.37
U92A C101A ... -3.47
C79G U126G ... -2.94
G48U G69A ... -3.02
G58A G61A G120A ... 0.579
G44C G61C ... -3.07
A16U ... -1.46
C8U G69U C115A ... 1.59
C13A A16U G60U C88U A121G ... 1.33
U9A C34A G51A C70U A121C ... -6.25
C89A A121G ... 1.44
